Test: Novel Modifiers of Survival Motor Neuron (SMN) Protein: Gene Identification via Genome-wide siRNA Screen;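 note: luminescence tracks full-length SMN protein made from the SMN2 reporter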
Settings: HEK293T SMN2-luciferase reporter, siRNA knockdown, 72 h; actives lie on both sides
Description: Spinal muscular atrophy (SMA) is the most common neuromuscular autosomal recessive disorder and one of the leading genetic causes of infant death. […] Briefly, 1 pmol of each siRNA was spotted to a well of a 384-well plate (Corning, Corning, NY) and 20 microL of serum-free DMEM containing […] of Lipofectamine RNAiMax (Life Technologies, Carlsbad, CA) was then added to each well. […] Raw luminescence reads were normalized to Ambion(R) Silencer(R) Negative Control #2 siRNA, then log10 transformed. […]
The whole screen tested about 31,000 sequences, of which about 1,400 (4.5%) were called active. The full list was thinned out, with actives kept by preference.
Grouping rule (median seed-adjusted z-score): zone 1: < -0.3; zone 2: ≥ -0.3 and < 0.007; zone 3: ≥ 0.007

The following sequences have reported results that may help.
record_sequence="AGAUGAGCCUAUACAGCGATT against TRIM9" label="zone 1"
record_sequence="GCAUGACGACUGAACUGAUTT against MDH1B" label="zone 1"

Please indicate the class for GGACGACUGCAGCAAGUUUTT against ATP2A3 based on its median seed-adjusted z-score.
zone 2

# classify by median seed-adjusted z-score band: GCACAAGGAGUGACCUUCUTT against GCHFR
zone 1

Given GACAGUAACUUUAAUUCCATT against IDH3A , name the class its median seed-adjusted z-score places it in.
zone 3

// return the class label for GGUAAAAUCAAGUACCAUATT against TIGD2
zone 2

Please indicate the class for GCAGCGACCUUUCAGAACATT against SALL1 based on its median seed-adjusted z-score.
zone 1

Lab note: sort GCAGAAUACUUCUAUGAAUTT against WIF1 into the matching median seed-adjusted z-score band.
zone 1

Quick check: band for GAUAUUGCACAAAUCUAUATT against UBE2D1
zone 3

Please report the category associated with CGCUUCAAGAGGUUCGGAATT against MLPH , nothing else.
zone 1

The entry to classify is GCUACUAUGCUGAAGAUCATT against CDH18 ; which class holds it?
zone 3

Looking at AGGAGUUCUUGGUCAUGAUTT against TNNC2 , which class would you pick?
zone 1

Sort into band: GAAGAGCAGUGUACCAUCATT against STARD8
zone 2

Which of the defined bands does the recorded median seed-adjusted z-score of CAGGAUCUGUUCAACCAAATT against VWA2 sit within?
zone 3

Consider GGAUGUGAACGGGCACAUUTT against CDC42BPG . To which median seed-adjusted z-score class does it belong?
zone 3

Looking at GAAUGAUCGUGAUCCUCGUTT against AHCTF1 , which class would you pick?
zone 1

Sort GCUUCUUAGCUGAGGAAAATT against RDH11 into one of the categories.
zone 2

Using the reported median seed-adjusted z-score, which band applies to GGAGUGCGAUGGACAAUUUTT against LCT ?
zone 3

====

Assay: Novel Modifiers of Survival Motor Neuron (SMN) Protein: Gene Identification via Genome-wide siRNA Screen;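 note: luminescence tracks full-length SMN protein made from the SMN2 reporter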
Settings: HEK293T SMN2-luciferase reporter, siRNA knockdown, 72 h; actives lie on both sides
In all, about 31,000 sequences went through this assay and about 1,400 (4.5%) were called active. This excerpt belongs to a sample that is enriched for actives.
Assign fulfilled to entries whose median seed-adjusted z-score meets or exceeds -0.03; assign not fulfilled to the rest.

Example entries and their recorded answers appear below.
record_sequence="CAUGCUCGUGGGUAACAAATT against RAB25" label="not fulfilled"
record_sequence="GGACUCAGGUCUCAUGUGATT against KRTAP5-7" label="not fulfilled"
record_sequence="GAAUAUAUCUAAAUCGCAUTT against RORA" label="not fulfilled"

# bool: median seed-adjusted z-score of GGACUCUACCUGACAGAAATT against CAPN13 >= -0.03
fulfilled

# bool: median seed-adjusted z-score of GGAGUGAAGACUUCGAGAATT against KCNN2 >= -0.03
fulfilled

Quick check: does ACAGCGCUCUCAAUCCCUUTT against GPR150 have median seed-adjusted z-score greater than or equal to -0.03?
not fulfilled

Values from PubChem BioAssay AID1347426
